The values you see were collected from PubChem BioAssay AID179.

Please go through the items and note down their IC50.
# Test system: CEM cells HIV-1 protection, formazan growth assay
# experiment_summary: NCI AIDS Antiviral Assay
# conditions: measured here: growth of uninfected CEM cells

Task: // fetch IC50 given entry `COc1ccc(-c2cc(-c3ccccc3)c(C#N)c(=O)[nH]2)cc1`
Result: > 61.7 µM

Task: // fetch IC50 given entry `O=S(=O)(NCCSSCCNS(=O)(=O)c1ccccc1)c1ccccc1`
Result: 13.5 µM

Task: // fetch IC50 given entry `CCOC(=O)/C(Br)=C/SCCC(=O)O`
Result: 174 µM

Task: // fetch IC50 given entry `CCOC(=O)c1oc2cc(O)cc(O)c2c(=O)c1-c1ccc(OC)cc1`
Result: 21.9 µM

Task: // fetch IC50 given entry `CC(C)(CO)CNc1cc(=O)[nH]c(N)n1`
Result: > 200 µM

Task: // fetch IC50 given entry CCOC(=O)C(C(=O)OCC)C(c1ccc(OC)cc1)N1CCN(C(c2ccc(OC)cc2)C(C(=O)OCC)C(=O)OCC)CC1 (stereo unspecified)
Result: > 100 µM

Task: // fetch IC50 given entry `Brc1ccc(-c2cc3c(cc2C2SCCS2)OCO3)cc1`
Result: > 67.6 µM

Task: // fetch IC50 given entry C[Si](C)(C)C#CC(O)CS(=O)c1ccccc1 (stereo unspecified)
Result: 105 µM

Task: // fetch IC50 given entry O=C1C(Cl)C(c2ccc(O)cc2)N1n1cnc2ccccc2c1=O (stereo unspecified)
Result: > 15.1 µM

Task: // fetch IC50 given entry `c1ccc2c(c1)Cc1cn3c(nc1-2)nc1ccccc13`
Result: 129 µM

Task: // fetch IC50 given entry `CC(C)(C)c1cc(Nc2c([N+](=O)[O-])cc([N+](=O)[O-])cc2[N+](=O)[O-])cc(C(C)(C)C)c1O`
Result: > 16.6 µM
